Test system: MCF7 breast
Test: NCI tumour cell line growth inhibition, 48 h; in the data active means GI50 below about 0.43 µM; inactive means the rest
Possible outcomes: active, inactive

In [3]: df
Out[3]:
                                   compound  label_class
0                 O=c1c(Cl)nnc2sc3ccccc3n12     inactive
1  O=C1C=C[C@]2(C[C@@H](c3cccc(C(F)(F)F)c3)O[C@@H](c3cccc(C(F)(F)F)c3)O2)O1       active
2  Cc1cc(NC(=O)C2c3ccccc3C(=O)N(CC(C)C)C2c2cccs2)no1 (centres undefined)     inactive
3  CC1(C)CC(=O)C2=C(C1)NC(SSC1=C(C#N)C(c3ccccc3)C3=C(CC(C)(C)CC3=O)N1)=C(C#N)C2c1ccccc1 (centres undefined)     inactive
4  COc1ccc(/C=C2\CN(C(=O)CCN3CCC(=NO)CC3)C/C(=C\c3ccc(OC)cc3)C2=O)cc1     inactive
5  COc1cc2c3c(n(C)c(=O)c2cc1OC)-c1cc2c(cc1/C3=C\CCCCN)OCO2     inactive
6  Nc1cccc2c1C(=O)N(C1CCC(=O)NC1=O)C2=O (centres undefined)     inactive
7  O/N=C1\CCc2cc(-c3nc(C4CCNCC4)[nH]c3-c3ccncc3)ccc21     inactive
8  O=C(Nc1n[nH]c2nc(-c3ccco3)c(Br)cc12)C1CC1     inactive

# credit: PubChem BioAssay (NCI)
